Target: Endoglucanase E (EGE) (Bacteroides thetaiotaomicron, UniProt Q8AAL9)
Sequence (Q8AAL9 whole entry): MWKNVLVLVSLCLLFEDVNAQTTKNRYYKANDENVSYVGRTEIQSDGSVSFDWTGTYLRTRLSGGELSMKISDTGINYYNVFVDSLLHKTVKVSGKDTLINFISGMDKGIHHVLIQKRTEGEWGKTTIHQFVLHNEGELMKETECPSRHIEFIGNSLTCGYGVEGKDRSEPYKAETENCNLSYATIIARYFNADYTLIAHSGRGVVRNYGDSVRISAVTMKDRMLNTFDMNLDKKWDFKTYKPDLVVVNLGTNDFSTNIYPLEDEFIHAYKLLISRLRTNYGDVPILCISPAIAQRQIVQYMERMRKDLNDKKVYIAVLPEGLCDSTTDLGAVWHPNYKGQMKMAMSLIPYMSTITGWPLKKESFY
Experiment: The drug is tested on Bacteroides thetaiotaomicron strain: VPI-5482 for biotransformation. The drug concentrations were measured before and after a 12-h incubation by liquid-chromatography-coupled mass spectrometry (LC–MS)
Assay type: ADME
Parameters: dose 2 uM
Conditions: 2 µM
valueType: Bacterial Biotransformation

{"molecule": "CC(=O)OCC(=O)[C@@]1(OC(C)=O)[C@@H](C)C[C@H]2[C@@H]3C[C@H](F)C4=CC(=O)C=C[C@]4(C)[C@@]3(F)[C@@H](O)C[C@@]21C [DIFLORASONE DIACETATE]", "testResult": "Compound NOT metabolized"}
{"molecule": "COc1ccc([C@@H]2Sc3ccccc3N(CCN(C)C)C(=O)[C@@H]2OC(C)=O)cc1", "testResult": "Compound NOT metabolized"}
{"molecule": "C[C@@H]1CC[C@H]2[C@@H](C)C(=O)O[C@@H]3O[C@@]4(C)CC[C@@H]1[C@]32OO4", "testResult": "Compound NOT metabolized"}
{"molecule": "C#C[C@]1(OC(C)=O)CC[C@H]2[C@@H]3CCC4=CC(=O)CC[C@@H]4[C@H]3CC[C@@]21C [NORETHINDRONE ACETATE]", "testResult": "Compound NOT metabolized"}
{"molecule": "C#C[C@]1(O)CC[C@H]2[C@@H]3CCC4=Cc5oncc5C[C@]4(C)[C@H]3CC[C@@]21C", "testResult": "Compound NOT metabolized"}

For the next question, use this molecule.
// sample "CC(=O)OCC(CCn1cnc2cnc(N)nc21)COC(C)=O" , its Bacterial Biotransformation was Compound NOT metabolized

---

Test: The drug is tested on Subdoligranulum variabile strain: DSM15176 for biotransformation. The drug concentrations were measured before and after a 12-h incubation by liquid-chromatography-coupled mass spectrometry (LC–MS)
Conditions: 2 µM
Non-standard residues stand in square brackets, D forms with d. Residues, ends and D or L forms follow the SMILES beside them. pGlu = O=C1CC[C@@H](C(=O)O)N1; Thz = O=C(O)[C@@H]1CSCN1
valueType: Bacterial Biotransformation

{"compound": "CCN(CC)CCNC(=O)c1ccc(NC(C)=O)cc1 [ACECAINIDE]", "Bacterial Biotransformation": "Compound NOT metabolized"}
{"compound": "CC#CCn1c(N2CCC[C@@H](N)C2)nc2c1c(=O)n(Cc1nc(C)c3ccccc3n1)c(=O)n2C", "Bacterial Biotransformation": "Compound NOT metabolized"}
{"compound": "COc1ccccc1OCC(O)COC(N)=O (centres undefined)", "Bacterial Biotransformation": "Compound NOT metabolized"}
{"compound": "COc1ccnc(C[S+]([O-])c2nc3ccc(OC(F)F)cc3[nH]2)c1OC (centres undefined)", "Bacterial Biotransformation": "Compound metabolized"}
{"compound": "NC(CO)(CO)CO.O=C(c1ccccc1)c1ccc2n1CCC2C(=O)O (centres undefined)", "Bacterial Biotransformation": "Compound metabolized"}
{"compound": "O=C1CC[C@@H](C(=O)N2CSC[C@H]2C(=O)O)N1 [PIDOTIMOD] ([pGlu]-[Thz]-OH)", "Bacterial Biotransformation": "Compound NOT metabolized"}
{"compound": "CN(C)C(=O)C(CCN1CCC(O)(c2ccc(Cl)cc2)CC1)(c1ccccc1)c1ccccc1 [LOPERAMIDE]", "Bacterial Biotransformation": "Compound NOT metabolized"}
{"compound": "CCCCC1=NC2(CCCC2)C(=O)N1Cc1ccc(-c2ccccc2-c2nnn[nH]2)cc1", "Bacterial Biotransformation": "Compound metabolized"}

// sample "CN(C(=O)CN(CCO)CC(=O)N(C)C(C)(C)Cc1ccccc1)C(C)(C)Cc1ccccc1" , its Bacterial Biotransformation was Compound NOT metabolized

// sample CCCc1nn(C)c2c(=O)[nH]c(-c3cc(S(=O)(=O)N4CCN(C)CC4)ccc3OCC)nc12.O=C(O)CC(O)(CC(=O)O)C(=O)O [SILDENAFIL CITRATE] , its Bacterial Biotransformation was Compound NOT metabolized

// sample CC[C@@H](CO)NC(=O)[C@@H]1C=C2c3cccc4c3c(cn4C)C[C@H]2N(C)C1.O=C(O)/C=C\C(=O)O [METHYSERGIDE MALEATE] , its Bacterial Biotransformation was Compound metabolized

// sample "O=C(CCCN1CCC(O)(c2ccc(Cl)cc2)CC1)c1ccc(F)cc1" , its Bacterial Biotransformation was Compound NOT metabolized

// sample C[C@@H](CO)NC(=O)[C@@H]1C=C2c3cccc4[nH]cc(c34)C[C@H]2N(C)C1.O=C(O)/C=C\C(=O)O [ERGONOVINE MALEATE] , its Bacterial Biotransformation was Compound NOT metabolized

// sample "CCOC(=O)[C@H](CCc1ccccc1)N[C@@H](C)C(=O)N1Cc2ccccc2C[C@H]1C(=O)O" , its Bacterial Biotransformation was Compound metabolized

// sample CN1CCC(=C2c3ccccc3CCc3cccnc32)CC1.O=C(O)/C=C\C(=O)O.O=C(O)/C=C\C(=O)O [AZATADINE MALEATE] , its Bacterial Biotransformation was Compound NOT metabolized

// sample "CC(C)c1nc(CN(C)C(=O)N[C@H](C(=O)N[C@@H](Cc2ccccc2)C[C@H](O)[C@H](Cc2ccccc2)NC(=O)OCc2cncs2)C(C)C)cs1" , its Bacterial Biotransformation was Compound NOT metabolized

// sample CC(C)N(CCC(C(N)=O)(c1ccccc1)c1ccccn1)C(C)C.O=P(O)(O)O (centres undefined) [DISOPYRAMIDE PHOSPHATE] , its Bacterial Biotransformation was Compound NOT metabolized

---

Settings: bacteroides thetaiotaomicron, 12 h, 2 µM
Description: The drug is tested on Bacteroides thetaiotaomicron strain: 3731 for biotransformation. The drug concentrations were measured before and after a 12-h incubation by liquid-chromatography-coupled mass spectrometry (LC–MS)

{"compound": "O=C1C(CC[S+]([O-])c2ccccc2)C(=O)N(c2ccccc2)N1c1ccccc1 (stereo not given)", "Bacterial Biotransformation": "Compound NOT metabolized"}
{"compound": "CC(=O)CC(c1ccccc1)c1c(O)c2ccccc2oc1=O (stereo not given)", "Bacterial Biotransformation": "Compound NOT metabolized"}
{"compound": "CN1CCC(OC(c2ccccc2)c2ccccc2)CC1", "Bacterial Biotransformation": "Compound NOT metabolized"}
{"compound": "CN1CCN(C(=O)O[C@H]2c3nccnc3C(=O)N2c2ccc(Cl)cn2)CC1", "Bacterial Biotransformation": "Compound NOT metabolized"}

---

Test: The drug is tested on Ruminococcus torques strain: ATCC27756 for biotransformation. The drug concentrations were measured before and after a 12-h incubation by liquid-chromatography-coupled mass spectrometry (LC–MS)
Type: ADME
Set-up: dose 2 uM, timepoint 0 vs 12 hours
Conditions: 2 µM
valueType: Bacterial Biotransformation

Below: 5 compounds and their reported Bacterial Biotransformation.
{"compound": "COc1cc2c(c(OC)c1OC)-c1ccc(OC)c(=O)cc1[C@@H](NC(C)=O)CC2", "Bacterial Biotransformation": "Compound NOT metabolized"}
{"compound": "C#C[C@]1(O)CC[C@H]2[C@@H]3CCC4=Cc5oncc5C[C@]4(C)[C@H]3CC[C@@]21C", "Bacterial Biotransformation": "Compound metabolized"}
{"compound": "CS(=O)(=O)O.OC(CCN1CCCCC1)(c1ccccc1)c1ccccc1 [PRIDINOL METHANESULFONATE]", "Bacterial Biotransformation": "Compound NOT metabolized"}
{"compound": "CS(=O)(=O)O.O.O.O.O=C1Cc2cc(CCN3CCN(c4nsc5ccccc45)CC3)c(Cl)cc2N1 [ZIPRASIDONE MESYLATE]", "Bacterial Biotransformation": "Compound NOT metabolized"}
{"compound": "O=C(O)COCCN1CCN(C(c2ccccc2)c2ccc(Cl)cc2)CC1 (centres undefined)", "Bacterial Biotransformation": "Compound NOT metabolized"}

// sample CC12CC3CC(C)(C1)CC(N)(C3)C2 [MEMANTINE] , its Bacterial Biotransformation was Compound NOT metabolized

---

Settings: bacteroides thetaiotaomicron, 12 h, 2 µM
valueType: Bacterial Biotransformation

Below: 6 compounds and their reported Bacterial Biotransformation.
{"compound": "CCC(COC(=O)c1cc(OC)c(OC)c(OC)c1)(c1ccccc1)N(C)C.O=C(O)/C=C\\C(=O)O (stereo not drawn)", "testResult": "Compound metabolized"}
{"compound": "CN1[C@@H]2CC[C@H]1C[C@@H](OC(=O)c1c[nH]c3ccccc13)C2", "testResult": "Compound NOT metabolized"}
{"compound": "Nc1nnc(-c2cccc(Cl)c2Cl)c(N)n1", "testResult": "Compound NOT metabolized"}
{"compound": "CN(C(=O)CN(CCO)CC(=O)N(C)C(C)(C)Cc1ccccc1)C(C)(C)Cc1ccccc1", "testResult": "Compound NOT metabolized"}
{"compound": "O=C(O)CCC(=O)O.O=C(O[C@H]1CN2CCC1CC2)N1CCc2ccccc2[C@@H]1c1ccccc1 [SOLIFENACIN SUCCINATE]", "testResult": "Compound NOT metabolized"}
{"compound": "Cc1ccc(S(=O)(=O)NC(=O)NN2CCCCCC2)cc1 [TOLAZAMIDE]", "testResult": "Compound metabolized"}

// sample "CCc1oc2ccccc2c1C(=O)c1cc(Br)c(O)c(Br)c1" , its Bacterial Biotransformation was Compound NOT metabolized

// sample CCN(C)C(=O)Oc1cccc([C@H](C)N(C)C)c1.O=C(O)C(O)C(O)C(=O)O [RIVASTIGMINE TARTRATE] , its Bacterial Biotransformation was Compound NOT metabolized
